All values here come from patent US10399940B2.

Target of assay: F508delCFTR (Homo sapiens, UniProt P13569, DEL508-508)
Construct: expressed in transfected cells; host or cells: CFBE41o- (human lung derived epithelial cell line), doxycycline-inducible expression
Sequence (P13569 with tags, fused parts or gaps DEL508-508): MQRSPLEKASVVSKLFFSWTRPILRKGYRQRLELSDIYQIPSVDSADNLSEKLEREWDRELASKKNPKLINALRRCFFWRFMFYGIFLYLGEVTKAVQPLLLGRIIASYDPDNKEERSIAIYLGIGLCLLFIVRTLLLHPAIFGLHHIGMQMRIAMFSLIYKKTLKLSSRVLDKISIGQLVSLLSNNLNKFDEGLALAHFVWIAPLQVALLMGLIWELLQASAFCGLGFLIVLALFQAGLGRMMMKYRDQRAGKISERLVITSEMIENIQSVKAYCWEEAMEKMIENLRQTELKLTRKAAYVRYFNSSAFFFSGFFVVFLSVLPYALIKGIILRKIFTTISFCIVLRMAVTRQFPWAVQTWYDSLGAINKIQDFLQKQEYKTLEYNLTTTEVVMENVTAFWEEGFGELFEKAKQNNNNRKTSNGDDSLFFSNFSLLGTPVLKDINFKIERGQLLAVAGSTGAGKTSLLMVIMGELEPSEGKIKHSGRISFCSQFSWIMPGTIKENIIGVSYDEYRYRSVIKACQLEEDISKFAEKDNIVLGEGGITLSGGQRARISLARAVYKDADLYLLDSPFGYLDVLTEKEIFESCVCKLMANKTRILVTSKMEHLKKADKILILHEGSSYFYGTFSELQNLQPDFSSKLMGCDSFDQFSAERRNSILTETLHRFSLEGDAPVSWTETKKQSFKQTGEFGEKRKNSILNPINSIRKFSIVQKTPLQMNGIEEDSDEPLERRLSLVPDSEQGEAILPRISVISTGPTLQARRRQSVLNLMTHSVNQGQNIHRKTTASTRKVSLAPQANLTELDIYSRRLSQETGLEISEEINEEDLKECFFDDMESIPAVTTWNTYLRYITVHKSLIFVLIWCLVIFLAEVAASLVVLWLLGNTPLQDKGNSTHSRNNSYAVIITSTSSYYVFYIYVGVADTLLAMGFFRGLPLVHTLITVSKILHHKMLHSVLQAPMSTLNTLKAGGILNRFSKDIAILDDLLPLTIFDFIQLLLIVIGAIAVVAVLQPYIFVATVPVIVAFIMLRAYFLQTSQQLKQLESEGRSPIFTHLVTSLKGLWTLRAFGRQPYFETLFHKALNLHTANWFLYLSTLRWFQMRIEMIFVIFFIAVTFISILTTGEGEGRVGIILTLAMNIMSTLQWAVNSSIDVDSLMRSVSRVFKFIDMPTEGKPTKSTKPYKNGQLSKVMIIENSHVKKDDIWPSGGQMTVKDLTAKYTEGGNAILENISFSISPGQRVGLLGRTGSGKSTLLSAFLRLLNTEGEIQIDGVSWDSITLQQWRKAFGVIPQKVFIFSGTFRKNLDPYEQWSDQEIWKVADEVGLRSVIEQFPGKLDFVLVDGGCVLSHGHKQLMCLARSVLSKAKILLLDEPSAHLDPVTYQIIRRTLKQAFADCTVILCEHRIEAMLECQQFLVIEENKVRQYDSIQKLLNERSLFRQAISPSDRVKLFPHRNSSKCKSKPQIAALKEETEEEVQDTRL
Assay explanation: Cell Surface Expression-Horse Radish Peroxidase (CSE-HRP) assay
Type: cell-based
Reported conditions: CFBE41o-F508delCFTR-HRP cells; with co-corrector (2 μM of 3-[(2R,4R)-4-({[1-(2,2-difluoro-1,3-benzodioxol-5-yl)cyclopropyl]carbonyl}amino)-7-methoxy-3,4-dihydro-2H-chromen-2-yl]benzoic acid); read-out: EC50 (with co-corrector)
Description: Cell Surface Expression-Horse Radish Peroxidase (CSE-HRP) Assay […] The maximum % activity achieved for the test compound either without or with a co-corrector at any tested concentration is presented in Table 1 along with the respective EC50's calculated using the following general sigmoidal curve with variable Hill slope equation (described as Model 42 in the Accelrys® Assay Explorer v3.3 software): y=(a−d)/(1+(x/c)^b)+d […]
Listing: EC50 of selected compounds

The following compounds have reported results that may help.
{"columns": ["Test smiles", "Quantity kind", "Reported"],
 "data": [
  ["COc1ccc(C(C)(C)C)cc1CO[C@H]1[C@H](C(C)(C)C)[C@@H](C(=O)O)N(C(=O)C2CCCCC2)[C@H]1c1ccccc1F", "EC50", "< 1000 nM"],
  ["COc1ncc(C2CCC2)cc1CO[C@H]1[C@H](C(C)(C)C)[C@@H](C(=O)O)N(C(=O)[C@@H]2CCCCO2)[C@H]1c1ccccc1C", "EC50", "< 1000 nM"]
]}

Now take the following compound into account.
Which EC50 value is on record for `COc1ncc(C(F)(F)F)cc1CO[C@H]1[C@H](C(C)(C)C)[C@@H](C(=O)O)N(C(=O)[C@@H]2CCCCO2)[C@H]1c1cccc(Cl)c1` ?
< 1000 nM

###

Target of assay: F508delCFTR (Homo sapiens, UniProt P13569, DEL508-508)
Construct: expressed in transfected cells; host or cells: CFBE41o- (human lung derived epithelial cell line), doxycycline-inducible expression
Assay explanation: Cell Surface Expression-Horse Radish Peroxidase (CSE-HRP) assay
Type: cell-based
Reported conditions: CFBE41o-F508delCFTR-HRP cells; test compound without co-corrector; 18-24 hours at 33° C.; read-out: EC50 (without co-corrector)
Listing: EC50 of selected molecules

The following molecules have reported results that may help.
{"columns": ["Molecule", "EC50"],
 "data": [
  ["COc1ncc(C(F)(F)F)cc1CO[C@H]1[C@H](C(C)(C)C)[C@@H](C(=O)O)N(C(=O)[C@@H]2CCCCO2)[C@H]1c1ccccc1-c1ccc(OC(F)(F)F)cc1", "1000 to 10000 nM"],
  ["COc1ccc(C(F)(F)F)cc1COC1[C@@H](c2ccccc2OC)N(C(=O)C2CCCCC2)[C@@H](C(=O)O)[C@@H]1C(C)(C)C (mixture of isomers)", "1000 to 10000 nM"],
  ["COc1ncc(C2CCC2)cc1CO[C@H]1[C@H](C(C)(C)C)[C@@H](C(=O)O)N(C(=O)C2(C(F)(F)F)CCCC2)[C@H]1c1cccnc1OC(C)C", "> 10000 nM"]
]}

Now take the following molecule into account.
Which EC50 value is on record for `COc1ncc(C(F)(F)F)cc1CO[C@H]1[C@H](C(C)(C)C)[C@@H](C(=O)O)N(C(=O)[C@@H]2CCCCO2)[C@H]1c1ccccc1Br` ?
1000 to 10000 nM
